Target system: recombinant human BCMA-his protein (Acro biosystems, Cat #BCA-H522Y) (human) (UniProt Q02223)
Sequence (Q02223 1-54, stated change not applied): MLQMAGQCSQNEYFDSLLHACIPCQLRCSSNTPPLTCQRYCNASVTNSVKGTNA
Test protocol: BLI Octet RED96, antibody on AHC sensor, BCMA-his in solution
Measured property: pKd
Answers are plain numbers, as −log10 of the molar value.

Give pKd for each listed item.
1. huB1H2-V14 (antibody, human IgG1, kappa, V domains shown) VH: QVQLVQSGAEVKKPGASVKVSCKASGYTLTNYVMHWVRQAPGQGLEWIGFIIPFNDGTKYNEHFKGRVTITRDTSISTAYMQLSSLRSEDTAVYYCARYDFEGYFDVWGQGTLVTVSS VL: DIQMTQSPSSLSASVGDRVTITCSASQDITNFLNWYQQKPGKAVKLLIYSTSRLHSGVPSRFSGSGSGTDFTLTISSLQPEDIATYYCQQYSNLPWTFGQGTKVEIKR
2. huB1H2-V15 (antibody, human IgG1, kappa, V domains shown) VH: QVQLVQSGAEVKKPGASVKVSCKASGYTLTNYVMHWMRQAPGQGLEWIGFIIPFNDGTKYNEHFKGRVTITRDTSISTAYMQLSSLRSEDTAVYYCARYDFEGYFDVWGQGTLVTVSS VL: DIQMTQSPSSLSASVGDRVTITCSASQDITNFLNWYQQKPGKAVKLLIYSTSRLHSGVPSRFSGSGSGTDFTLTISSLQPEDIATYYCQQYSNLPWTFGQGTKVEIKR

8.29
8.22

I have this binder here, huB1H2-V6 (antibody, human IgG1, kappa, V domains shown) VH: QVQLVQSGAEVKKPGASVKVSCKASGYTLTNYVMHWVRQAPGQGLEWIGFIIPFNDGTKYNEHFKGRVTITSDKSISTAYMQLSSLRSEDTAVYYCARYDFEGYFDVWGQGTLVTVSS VL: DIQMTQSPSSLSASVGDRVTITCSASQDITNFLNWYQQKPGKTVKLLIYSTSRLHSGVPSRFSGSGSGTDYTFTISSLQPEDIATYYCQQYSNLPWTFGQGTKVEIKR , and I need its recorded pKd.
8.95
